Assay name: recombinant barcode read abundance after kanamycin selection (control-corrected) (log10(CPM+1)); higher = more efficient recombination; sequences stand for … in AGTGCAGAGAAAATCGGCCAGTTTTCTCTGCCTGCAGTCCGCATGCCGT…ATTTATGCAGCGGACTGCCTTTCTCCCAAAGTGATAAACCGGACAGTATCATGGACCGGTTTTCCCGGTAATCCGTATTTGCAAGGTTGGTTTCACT; site = the 11-nt target
The sequences listed here are annotated with their recombinant barcode read abundance (log10).
Provide a numeric answer; units are not to be included.

GGGAGCCCTTGGGTTCTAACCTGTTGCTGTG [GGGAGCCCTCA_LTGcore_CT_RTGcore_CA] (site GGGAGCCCTCA) (LTG core: CT, RTG core: CA) | 0.589

Challenge: State the recorded recombinant barcode read abundance (log10) for this entry: GAGTCCACTTGGGTTCTAACCTGTTGCGTAT [GAGTCCACTAC_LTGcore_CT_RTGcore_AT] (site GAGTCCACTAC) (LTG core: CT, RTG core: AT)
Response given: 0.389

Challenge: State the recorded recombinant barcode read abundance (log10) for this entry: AGGCGGTGATGGGTTCTAACCTGTTGCTTAG [AGGCGGTCTAA_LTGcore_GA_RTGcore_CT] (site AGGCGGTCTAA) (LTG core: GA, RTG core: CT)
Response given: 0.09

###

Assay name: recombinant UMI read abundance after kanamycin selection (control-corrected) (log10(CPM+1)); higher = more efficient recombination; extreme values may be limits of the assay; sequences stand for … in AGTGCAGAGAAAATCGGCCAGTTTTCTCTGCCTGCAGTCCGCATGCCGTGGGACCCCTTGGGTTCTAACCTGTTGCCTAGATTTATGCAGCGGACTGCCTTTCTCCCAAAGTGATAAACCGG…AGGTTGGTTTCACT; site = the 11-nt donor
Parameter measured: recombinant UMI read abundance (log10)
Provide a numeric answer; units are not to be included.

Solved cases (6 shown):
CACATTGCATGGACCGGTTTTCCCGGTAATCCGTATTTGGT (site CACATTGCTAC) | 1.69
GCTTGCCCATGGACCGGTTTTCCCGGTAATCCGTATTTGGT (site GCTTGCCCTAA) | 0.00835
CCAGGTGCATGGACCGGTTTTCCCGGTAATCCGTATTTGTT (site CCAGGTGCTAC) | 0.00844
TTAACTGCATGGACCGGTTTTCCCGGTAATCCGTATTTGTG (site TTAACTGCTCA) | 0.697
TAACGGCCATGGACCGGTTTTCCCGGTAATCCGTATTTGAA (site TAACGGCCTTT) | 0.00367
GTTGCAACATGGACCGGTTTTCCCGGTAATCCGTATTTGCC (site GTTGCAACTGG) | 0

Challenge: State the recorded recombinant UMI read abundance (log10) for this entry: ATGTAGGCATGGACCGGTTTTCCCGGTAATCCGTATTTGTC (site ATGTAGGCTGA)
Response given: 2.72

Challenge: State the recorded recombinant UMI read abundance (log10) for this entry: ATGTAGCCATGGACCGGTTTTCCCGGTAATCCGTATTTGGC (site ATGTAGACTGC)
Response given: 0

Challenge: State the recorded recombinant UMI read abundance (log10) for this entry: GCGACAACATGGACCGGTTTTCCCGGTAATCCGTATTTGCT (site GCGAGAACTAG)
Response given: 0
